Molecular target: Methionine--tRNA ligase (Trypanosoma brucei brucei (strain 927/4 GUTat10.1), UniProt Q38C91)
Sequence (Q38C91 whole entry): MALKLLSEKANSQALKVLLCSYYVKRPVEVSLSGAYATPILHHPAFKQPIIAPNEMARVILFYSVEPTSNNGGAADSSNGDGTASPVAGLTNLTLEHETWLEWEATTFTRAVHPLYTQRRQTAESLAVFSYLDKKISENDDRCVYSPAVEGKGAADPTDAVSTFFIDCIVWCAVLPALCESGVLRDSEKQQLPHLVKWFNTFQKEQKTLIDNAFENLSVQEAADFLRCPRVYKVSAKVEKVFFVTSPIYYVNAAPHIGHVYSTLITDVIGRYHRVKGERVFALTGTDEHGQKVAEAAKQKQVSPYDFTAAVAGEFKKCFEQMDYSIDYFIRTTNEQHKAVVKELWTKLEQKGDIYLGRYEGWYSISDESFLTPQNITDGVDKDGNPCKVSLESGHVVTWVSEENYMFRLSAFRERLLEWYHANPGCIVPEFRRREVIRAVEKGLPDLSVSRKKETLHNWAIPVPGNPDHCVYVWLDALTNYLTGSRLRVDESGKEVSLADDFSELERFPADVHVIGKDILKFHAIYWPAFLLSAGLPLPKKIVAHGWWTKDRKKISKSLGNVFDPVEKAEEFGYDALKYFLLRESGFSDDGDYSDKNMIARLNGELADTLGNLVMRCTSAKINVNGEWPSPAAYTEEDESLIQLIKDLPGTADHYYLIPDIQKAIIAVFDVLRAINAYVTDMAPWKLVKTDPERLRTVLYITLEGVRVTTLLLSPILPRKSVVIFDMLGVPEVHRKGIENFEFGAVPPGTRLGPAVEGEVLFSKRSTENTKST
quantity_measured: IC50

>>> observed_measurement("Cc1[nH]c2ccccc2c1CN=Nc1nc2ccccc2[nH]1")
"36.9 µM"
>>> observed_measurement("Cc1cc(Cl)ccc1OCCCC(=O)NNC(=O)c1ccccc1O")
"> 119 µM"
>>> observed_measurement("Cc1ccc(C(=O)NN2C(=O)/C(=C/c3nc4ccccc4[nH]3)SC2=S)cc1")
"> 119 µM"
>>> observed_measurement("Cc1ccc2nc(-c3ccc(SCC(=O)Nc4ccc5c(c4)OCCO5)nc3)[nH]c2c1")
"> 119 µM"
>>> observed_measurement("COC(=O)C(C=Nc1ccccc1)NC(=O)c1ccc(Cl)cc1Cl (stereo unspecified)")
"2.71 µM"
>>> observed_measurement("Oc1cc(SCc2nc3ccccc3[nH]2)c(O)n1-c1cccc(Cl)c1")
"2.6 µM"
>>> observed_measurement("COc1ccc(NC(=O)COC(=O)CCCOc2ccc(Cl)cc2Cl)cc1")
"> 119 µM"
>>> observed_measurement("Fc1ccccc1CSc1nc2ncc(Br)cc2[nH]1")
"> 119 µM"
>>> observed_measurement("O=C(CSc1nc2ccc(Cl)cc2[nH]1)c1c[nH]c2ccccc12")
"> 119 µM"
>>> observed_measurement("Cc1csc(CNc2ncnc3ccc(-c4ccccc4Cl)cc23)c1")
"> 119 µM"
>>> observed_measurement("Cc1cc2c(c(=O)n1CC1CCCO1)C(c1ccc3c(c1)OCO3)C(C#N)C(=N)O2 (stereo unspecified)")
"> 119 µM"
>>> observed_measurement("O=C(Nc1ccccc1)Nc1ccc(S(=O)(=O)N2CCCCC2)cc1")
"> 119 µM"
>>> observed_measurement("O=C(Nc1cccnc1)c1ccc(COc2cc(Cl)ccc2Cl)o1")
"> 119 µM"
>>> observed_measurement("O=C(CSc1ccc(-c2nc3ccccc3[nH]2)cn1)Nc1ccc(S(=O)(=O)N2CCCC2)cc1")
"> 119 µM"
>>> observed_measurement("COc1cc(OC)c(OC)cc1CN=Nc1nc2ccccc2[nH]1")
"> 119 µM"
>>> observed_measurement("N#CC(N=Nc1cc(Cl)cc(Cl)c1)c1nnc2n1CCCCC2 (stereo unspecified)")
"16.6 µM"
>>> observed_measurement("O=C(Cc1ccc(Br)cc1)NNC(=O)Nc1ccc(Cl)cc1")
"> 119 µM"
>>> observed_measurement("Cc1cc(Br)cc(Br)c1OCC(=O)NNC(=O)Nc1ccccc1")
"> 4.39 µM"
>>> observed_measurement("c1ccc2[nH]c(N=NCc3c[nH]c4ccccc34)nc2c1")
"32.2 µM"
>>> observed_measurement("Clc1cccc(N=NC(Cc2nc3ccccc3[nH]2)c2ccccc2)c1 (stereo unspecified)")
"3.09 µM"
>>> observed_measurement("COc1ccccc1NS(=O)(=O)c1cc(NC(=O)Nc2ccccc2)ccc1N1CCCCC1")
"> 119 µM"

---

Listing of recorded IC50 by entry.
Target: Methionine--tRNA ligase (Trypanosoma brucei brucei (strain 927/4 GUTat10.1), UniProt Q38C91)
quantity_measured: IC50

>>> observed_measurement("COc1ccc(NC(=O)Nc2cccc3cccnc23)cc1")
"2.82 µM"
>>> observed_measurement("N#Cc1ccccc1CSc1nc2cc(Br)c[nH]c-2n1")
"> 119 µM"
>>> observed_measurement("O=C(NCc1cc(Br)cc(Br)c1OC(=O)c1ccccc1[N+](=O)[O-])c1ccccc1")
"> 119 µM"
>>> observed_measurement("Oc1cc(N(CCc2ccccc2)C(=S)Nc2ccccc2)c(O)n1-c1ccc(Br)cc1")
"0.46 µM"
>>> observed_measurement("N#Cc1ccccc1CSc1ccc(-c2nc3ccccc3[nH]2)cn1")
"> 119 µM"
>>> observed_measurement("COc1cc(CN=Nc2nc3ccccc3[nH]2)ccc1O")
"102 µM"
>>> observed_measurement("O=C(OCC(=O)c1c[nH]c2ccccc12)c1ccc(OC(F)F)cc1")
"> 119 µM"
>>> observed_measurement("CC(N=Nc1nc2ccccc2[nH]1)c1ccc2c(c1)OCO2 (configuration not stated)")
"> 119 µM"
>>> observed_measurement("COc1cccc(NC(=O)CSC(N)=O)c1")
"1.57 µM"
>>> observed_measurement("COc1ccc(CC(=O)OCC(=O)Nc2ccc(Br)cc2)cc1")
"> 119 µM"
>>> observed_measurement("C=C(c1ccc(O)cc1)c1sc(=S)n(CCC(=O)O)c1O")
"9.47 µM"
>>> observed_measurement("COC(=O)Cn1c(CC(=O)Nc2ccc(Cl)cc2)c(O)n(-c2ccc(Cl)cc2)c1=S")
"19.7 µM"

Value source: BindingDB's records for doi:10.7270/Q2XP73JZ
